# Experiment notes: small-molecule microarray binders of probe aWnt5a, primary screen, biochemical, biotinylated probe, 635/667 nm fluorescence (AID 1113);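 further: score merges 667 nm fluorescence intensity with signal-to-noise per printed feature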
# Test settings: higher = more signal
Measured attribute: composite z-score
Give a plain numeric answer without units written out.

A selection of reference data follows.
>>> measured_result("CC(C)CNC(=O)[C@@]1(c2ccc([N+](=O)[O-])cc2)CC(=O)N(C2CCCCC2)[C@@H]1c1ccc(CO)cc1I")
-0.0417
>>> measured_result("O=C1NCC(=O)N2[C@@H]1C[C@@H](C(=O)O)[C@H]2c1ccc(O)cc1")
-0.0758

Turning to the following molecule.
Any idea what its composite z-score is? The molecule is COc1ccc([Si](C)(C)[C@H]2[C@H](CCn3cc([C@H](O)c4ccccc4)nn3)O[C@@]3(C(=O)N(Cc4cccc(N5C(=O)c6cccc7cccc5c67)c4)c4ccccc43)[C@@H]2C)cc1
-0.175

----------
# Experiment notes: binders of probe aFGF10 on microarray, primary screen, stem cell growth factor project, biochemical, small-molecule microarray, fluorescence 635/667 (AID 1071);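 further: score merges 667 nm spot intensity and signal to noise from triplicate slides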
# Test settings: higher = more signal
compounds and their reported composite z-score
Give a plain numeric answer without units written out.

Any idea what its composite z-score is? The compound is O=C1O[C@@H](c2ccccc2)[C@@H](c2ccccc2)N2[C@@H](c3ccc(O)cc3)[C@]3(C(=O)Nc4ccc(C#CC5=CCCCC5)cc43)[C@@H](C(=O)N3CCN(c4ncccn4)CC3)[C@H]12
0.323

Any idea what its composite z-score is? The compound is O=C(CCCCCCC(=O)Nc1ccccc1)N/N=C/c1ccccc1
0.0493

Any idea what its composite z-score is? The compound is CC(C)NC(=O)[C@@]1(C)c2ccccc2C(=O)N(C(C)C)[C@H]1c1ccc(CO)cc1
-0.564

Any idea what its composite z-score is? The compound is O=C1O[C@@H](c2ccccc2)[C@@H](c2ccccc2)N2[C@@H](c3ccc(O)cc3)[C@]3(C(=O)Nc4ccccc43)[C@@H](C(=O)Nc3nc4ccccc4s3)[C@H]12
0.43

----------
# Experiment notes: small-molecule microarray binders of probe aXIP, primary screen, biochemical, NeuroSMM set, 635/667 nm fluorescence (AID 1119);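 further: probe is the protein aXip251-270 applied at 1 µg/mL to compound-printed slides; binding of probe to printed compounds measured as 667 nm fluorescence plus signal to noise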
# Test settings: higher = more signal, called active from +8 up or from −8 down
Binary call on composite Z-score: yes (1) from 0.08 upward, no (0) beneath that.

Past entries and their recorded results:
>>> group_label("CC(C)C(=C=CC[C@@H](O)c1ccccc1OCCO)C[C@@H](O)COCc1ccccc1")
"yes (1)"
>>> group_label("[N-]=[N+]=Nc1ccccc1C[C@]1(C(=O)NCc2ccccc2)N=C(c2ccc(OCCCO)cc2)O[C@H]1c1ccccc1")
"no (0)"

Textbook exercise: given the entry O=C1C[C@]2(c3ccc([N+](=O)[O-])cc3)C(=O)N(Cc3ccccc3)c3cc(CO)ccc3[C@H]2N1CC12CC3CC(CC(C3)C1)C2 , state whether its composite Z-score is greater than or equal to 0.08.
no (0)

Textbook exercise: given the entry CN1C(=O)[C@@]2(CCS(=O)(=O)c3ccccc3)N=C(c3ccc(OCCCO)cc3)O[C@H]2c2ccccc21 , state whether its composite Z-score is greater than or equal to 0.08.
yes (1)

Textbook exercise: given the entry CCOc1cc(C(O)C2C=CC3C(=O)N(C)C(=O)C3N2N2CCCCC2)ccc1O (stereo unspecified) , state whether its composite Z-score is greater than or equal to 0.08.
yes (1)

Textbook exercise: given the entry Cc1ccc(C(C)CC(O)C2C=CC3C(=O)N(c4ccccc4)C(=O)C3N2Nc2ccc(C(C)C)cc2)o1 (stereo unspecified) , state whether its composite Z-score is greater than or equal to 0.08.
no (0)

Textbook exercise: given the entry Cc1ccc(S[C@]2(C(=O)NC3CC3)CC(=O)N(Cc3ccccc3Cl)[C@@H]2c2ccc(CO)cc2I)cc1 , state whether its composite Z-score is greater than or equal to 0.08.
yes (1)

----------
# Experiment notes: adipocyte viability effects, profiling panel, cell-based, 3T3-L1 adipocytes, calcein-AM fluorescence, 48 h, basal (AID 1163); further: test concentration not given here
# Test settings: 3T3-L1 adipocytes viability, higher = more signal
compounds and their reported z-score

>>> measured_result("C=CCC(OC(C)=O)[C@@H]1[C@@H](N(Cc2cc3ccccc3o2)C(=O)Cc2ccc(F)cc2)c2cc(OCCCO)ccc2N1C(=O)c1ccc2ccccc2n1 (some centres undefined)")
1.2

Any idea what its z-score is? The compound is C=CCN1C(=O)[C@@]2(CCC(=O)OC(C)(C)C)N=C(c3ccc(OCCCO)cc3)O[C@H]2c2ccccc21
0.28

Any idea what its z-score is? The compound is CC(=O)n1cc(C(O)C2C=CC3C(=O)N(Cc4ccccc4)C(=O)C3N2n2cnnc2)c2ccccc21 (centres undefined)
-0.0245

Any idea what its z-score is? The compound is O=C1C[C@]2(c3ccc([N+](=O)[O-])cc3)C(=O)N(Cc3ccccc3)c3cc(CO)ccc3[C@H]2N1CC12CC3CC(CC(C3)C1)C2
-1.02

----------
# Experiment notes: binders of probe aFSTL3 on microarray, primary screen, stem cell growth factor project, biochemical, small-molecule microarray, fluorescence 635/667 (AID 1064);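 further: measures binding of the biotinylated anti-FSTL3 antibody to printed compounds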
# Test settings: higher = more signal
Measured attribute: composite z-score
Give a plain numeric answer without units written out.

Any idea what its composite z-score is? The molecule is Cc1ccc(S[C@]2(C(=O)NCCN3CCOCC3)CC(=O)N(Cc3ccccc3C(F)(F)F)[C@@H]2c2ccc(CO)cc2I)cc1
0.273

Any idea what its composite z-score is? The molecule is C=CCN1Cc2ccccc2C[C@@]2(N=C(c3ccc(OCCCO)cc3)O[C@H]2c2ccccc2)C1=O
0.633

Any idea what its composite z-score is? The molecule is NC(=O)NCC#Cc1ccc2c(c1)[C@]1(C(=O)N2)[C@H](C(=O)Nc2nc3ccccc3s2)[C@H]2C(=O)O[C@H](c3ccccc3)[C@H](c3ccccc3)N2[C@@H]1c1ccc(O)cc1
0.187

Any idea what its composite z-score is? The molecule is O=C1O[C@@H](c2ccccc2)[C@@H](c2ccccc2)N2[C@@H](c3ccc(O)cc3)[C@]3(C(=O)Nc4ccc(C#CCCO)cc43)[C@@H](C(=O)NC[C@H](O)c3ccccc3)[C@H]12
0.239

----------
# Experiment notes: PSAC antagonists in infected red cells, primary screen, cell-based, P. falciparum Indochina, OD700, 18 h (AID 1157)
# Test settings: P. falciparum Indochina infected erythrocytes, osmotic lysis OD700, 18 h; higher = more signal, called active from +8 up or from −8 down
compounds and their reported z-score
Give a plain numeric answer without units written out.

A selection of reference data follows.
>>> measured_result("CN1C(=O)C2C(C1=O)C1C=C(c3ccc(CO)cc3)C2C(c2cccs2)N1Cc1cccc(OC(F)(F)F)c1 (centres undefined)")
1.43
>>> measured_result("CN(C)CCCCNC(=O)[C@H]1C[C@H]2C(=O)N[C@@H](CCCCN(C)C)C(=O)N2[C@H]1c1cccc(OCCO)c1")
-0.0919
>>> measured_result("Cc1ccc(C(C)CC(O)C2C=CC3C(=O)N(c4ccccc4)C(=O)C3N2Nc2ccc(C(C)C)cc2)o1 (centres undefined)")
0.631
>>> measured_result("COCCOC(=O)N1C(=O)[C@@]2(c3cc(C#CC4(O)CCCCCC4)ccc31)[C@H](c1ccccc1OCCO)N1[C@H](c3ccccc3)[C@H](c3ccccc3)OC(=O)[C@H]1[C@@H]2C(N)=O")
0.76
>>> measured_result("COCCCNC(=O)[C@@]1(Sc2ccc(C)cc2)CC(=O)N(C2Cc3ccccc3C2)[C@@H]1c1ccc(CO)cc1I")
-0.0133
>>> measured_result("COc1ccc([Si](C)(C)[C@H]2[C@H](CCn3cc([C@H](O)c4ccccc4)nn3)O[C@@]3(C(=O)N(Cc4ccc(N5CCC5=O)cc4)c4ccccc43)[C@@H]2C)cc1")
2.07
>>> measured_result("C[n+]1ccc(CCCO)cc1")
0.131
>>> measured_result("CO[C@H]1O[C@H](CO)[C@@H](OC(=O)Nc2ccccc2-c2ccccc2)[C@H](OC(=O)Nc2ccc3c(c2)OCO3)[C@@H]1OC(=O)Nc1ccc2c(c1)OCO2")
1.11
>>> measured_result("C=CCN1C(=O)[C@@]2(CCC(=O)OC(C)(C)C)N=C(c3ccc(OCCCO)cc3)O[C@H]2c2ccccc21")
13.2
>>> measured_result("O=C1O[C@@H](c2ccccc2)[C@@H](c2ccccc2)N2[C@@H](c3ccc(O)cc3)[C@]3(C(=O)Nc4ccc(C#CCCO)cc43)[C@@H](C(=O)Nc3nc4ccccc4s3)[C@H]12")
1.63

Any idea what its z-score is? The compound is CC(C)OC(=O)CC(=O)CC(O)c1cccc(C#N)c1 (centres undefined)
-1.2

Any idea what its z-score is? The compound is CC[C@@H]1[C@H]2C3C(=O)N(CC)C(=O)C3CC(=O)[C@H]2[C@H](c2ccc(C)cc2)N1S(=O)(=O)c1ccc(C)cc1 (some centres undefined)
1.3

Any idea what its z-score is? The compound is CC(C)CNC(=O)[C@@H]1c2ccccc2C(=O)N(Cc2cc(F)cc(C(F)(F)F)c2)[C@H]1c1ccc(CO)cc1
-0.111

Any idea what its z-score is? The compound is COc1ccc([Si](C)(C)[C@H]2[C@H](CC(=O)N3Cc4ccccc4C[C@H]3CO)O[C@@]3(C(=O)N(Cc4cccc(N5CCCCC5=O)c4)c4ccccc43)[C@@H]2C)cc1
0.549
